target: human Chk1 (GST-Chk1) (Homo sapiens); construct: made in house; host or cells: insect cells (baculovirus, Bac-to-Bac); test: Chk1 FlashPlate kinase assay; type: biochemical; details: 8.7 nM GST-Chk1, 1 uM ATP, 33P incorporation into peptide substrate
Sequence (O14757 whole entry): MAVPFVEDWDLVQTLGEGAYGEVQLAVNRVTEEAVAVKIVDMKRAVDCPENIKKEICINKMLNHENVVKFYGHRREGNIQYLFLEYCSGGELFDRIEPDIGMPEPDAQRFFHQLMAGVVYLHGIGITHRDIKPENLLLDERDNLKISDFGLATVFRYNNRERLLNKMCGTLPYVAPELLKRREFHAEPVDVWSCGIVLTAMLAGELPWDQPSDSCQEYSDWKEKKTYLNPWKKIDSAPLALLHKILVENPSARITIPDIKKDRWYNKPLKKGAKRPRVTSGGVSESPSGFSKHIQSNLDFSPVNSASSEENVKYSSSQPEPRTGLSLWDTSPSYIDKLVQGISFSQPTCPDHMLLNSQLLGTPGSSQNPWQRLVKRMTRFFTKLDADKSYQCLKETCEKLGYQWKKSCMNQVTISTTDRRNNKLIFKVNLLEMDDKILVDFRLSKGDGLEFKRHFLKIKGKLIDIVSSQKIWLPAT
pIC50: −log10 of the molar value.
Observable: pIC50

{"columns": ["Smiles representation", "Observable", "Val"],
 "data": [
  ["Cc1n[nH]c2c1c(=O)n(CCCNCCc1ccccc1)c1ccccc21", "pIC50", "> 6.00"],
  ["Cc1n[nH]c2c1c(=O)n(CCNCc1ccccc1)c1ccccc21", "pIC50", "> 6.00"],
  ["Cc1[nH]nc2c1c(=O)n(CCCNC(=O)c1ccc(F)cc1F)c1ccccc21", "pIC50", "> 6.00"],
  ["Cc1[nH]nc2c1c(=O)n(CCCNC(=O)c1ccc(F)cc1)c1ccccc21", "pIC50", "> 6.00"],
  ["Cc1[nH]nc2c1c(=O)n(CCCN)c1ccc(N3CCCC3)cc21", "pIC50", "> 6.00"],
  ["Cc1n[nH]c2c1c(=O)n(CCN1CCOCC1)c1ccccc21", "pIC50", "4.70 to 6.00"],
  ["Cc1n[nH]c2c1c(=O)n(CCNC(=O)Nc1ccccc1)c1ccccc21", "pIC50", "4.70 to 6.00"],
  ["Cc1n[nH]c2c1c(=O)n(CC1CCNCC1)c1ccc(Br)cc21", "pIC50", "> 6.00"]
]}

Problem: What value of measured pIC50 is listed for `Cc1ccc2c(c1)c1n[nH]c(C)c1c(=O)n2CCCNC(=O)OC(C)(C)C` ?
Result: > 6.00
